Read-out record for GyrB ATPase activity (E. coli GyrA, E. coli GyrB) (Escherichia coli, UniProt P0AES6): IC50

# molecule, IC50
records = [
    ("Cc1[nH]c(C(=O)NC2CCN(c3ncc(C(=O)O)s3)CC23OCCO3)c(Cl)c1Cl (stereo not shown)", "17.8 nM"),
    ("Cc1[nH]c(C(=O)N[C@H]2CCN(c3ncc(C(N)=O)s3)C[C@H]2n2ccnc2)c(Cl)c1Cl (racemic)", "25.7 nM"),
    ("COCC(COC)NC(=O)c1nc(N2CC[C@@H](NC(=O)c3[nH]c(C)c(Cl)c3Cl)[C@@H](n3cc(CF)nn3)C2)sc1C(=O)O", "< 9.77 nM"),
    ("Cc1[nH]c(C(=O)N[C@@H]2CCN(c3ncc(C(=O)O)s3)C[C@@H]2n2cc(Cl)nn2)c(Cl)c1Cl", "< 9.77 nM"),
    ("COC1(OC)CN(c2ncc(C(=O)O)s2)CCC1NC(=O)c1[nH]c(C)c(Cl)c1Cl (stereo not shown)", "< 67.1 nM"),
    ("CCOC(=O)c1cccc2nc(N3CC[C@@H](NC(=O)c4[nH]c(C)c(Cl)c4Cl)[C@@H](n4ccnn4)C3)sc12", "218 nM"),
    ("COC(=O)c1cnc(N2CCC(NC(=O)c3[nH]c(C)c(Cl)c3Cl)C3(C2)OCCCO3)s1 (stereo not shown)", "79.1 nM"),
]

====

Read-out record for GyrB ATPase activity (E. coli GyrA, E. coli GyrB) (Escherichia coli): IC50
quantity: IC50 (nM)

# compound, relation.qualifier, measured.number
rows = [
    ("CONC(=O)c1cccc2nc(N3CC[C@H](NC(=O)c4[nH]c(C)c(Cl)c4Cl)[C@H](n4ccnc4)C3)sc12 (racemic)", "<", 9.77),
    ("COC(=O)c1cnc(N2CC[C@H](NC(=O)c3[nH]c(C)c(Cl)c3Cl)[C@H](n3cncn3)C2)s1 (racemic)", "=", 33.4),
    ("Cc1[nH]c(C(=O)NC2CCN(c3ncc(C(=O)O)s3)CC23OCC2(CC2)CO3)c(Cl)c1Cl (stereo not shown)", "<", 9.77),
    ("Cc1[nH]c(C(=O)N[C@H]2CCN(c3ncc(C(=O)O)s3)C[C@H]2N)c(Cl)c1Cl (racemic)", "=", 291),
]

====

pIC50: −log10 of the molar value.
Reported pIC50, GyrB ATPase activity (E. coli GyrA, E. coli GyrB) (Escherichia coli, UniProt P0AES6).
quantity: pIC50

# molecule, quantity, result
rows = [
    ("Cc1[nH]c(C(=O)N[C@@H]2CCN(c3ncc(C(=O)O)s3)C[C@@H]2n2ccnn2)c(Cl)c1Cl", "pIC50", "> 8.01"),
    ("COCCNC(=O)c1nc(N2CCC(NC(=O)c3[nH]c(C)c(Cl)c3Cl)/C(=N/OC)C2)sc1C(=O)O (stereo not shown)", "pIC50", "> 8.01"),
    ("CO/N=C1\\CN(c2nc(-c3ncnn3C)c(C(=O)OC)s2)CCC1NC(=O)c1[nH]c(C)c(Cl)c1Cl (stereo not shown)", "pIC50", 7.18),
    ("CC(=O)c1nc(N2CCC(NC(=O)c3[nH]c(C)c(Cl)c3Cl)C3(C2)OCCCO3)sc1C(=O)O (stereo not shown)", "pIC50", "> 8.01"),
]

src = patent US20100286181A1
